# Test system: RAW264.7
# protocol description: Antiinflammatory activity in mouse RAW264.7 cells assessed as inhibition of LPS-induced NO production at 30 uM incubated for 10 mins prior to LPS-challenge measured after 18 hrs by Griess method relative to control
# Type: functional
observed property: inhibition at 30 µM (%)
Give the number; % is assumed, so skip it.

Worked examples, 2 compounds total:
compound	test result
CCC(C)C(=O)c1c(O)c(C/C=C(\C)CCC=C(C)C)c(O)c2c([C@@H](O)CC)cc(=O)oc12 (stereo partly drawn)	71.3
CCC(C)C(=O)c1c(O)c(C/C=C(\C)CCC=C(C)C)c(O)c2c([C@H](CC)OC(C)=O)cc(=O)oc12 (stereo partly drawn)	91.1

API: the following record is the query input.
# input Data request, read-out inhibition at 30 µM, for CC[C@H](OC(C)=O)c1cc(=O)oc2c(C(=O)CC(C)C)c(O)c(C/C=C(\C)CCC=C(C)C)c(O)c12
# output 88.2

----------
# viability at 18 h, 10 µM per record follows
# protocol description: Cytotoxicity against mouse RAW264.7 cells assessed as cell viability at 10 uM after 18 hrs by MTT assay
# Format: cell-based
# particulars: read-out: Activity
Answer format: numeric, % implied, no suffix.

Worked examples follow.
molecule	viability at 18 h, 10 µM / %
CCC(C)C(=O)c1c(O)c(C/C=C(\C)CCC=C(C)C)c(O)c2c([C@H](CC)OC(C)=O)cc(=O)oc12 (stereo partly drawn)	42.3
CC(C)=CCc1c(O)c(C(=O)C(C)C)c(O)c2c(-c3ccccc3)cc(=O)oc12	27.2

# input Can you share its viability at 18 h, 10 µM? I mean this molecule: CC[C@H](OC(C)=O)c1cc(=O)oc2c(C(=O)CC(C)C)c(O)c(C/C=C(\C)CCC=C(C)C)c(O)c12
# output 20.2
